B1: HDV Ribozyme (parent)
chain: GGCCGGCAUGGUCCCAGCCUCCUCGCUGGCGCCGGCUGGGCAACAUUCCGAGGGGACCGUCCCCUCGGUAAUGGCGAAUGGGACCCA

Variants of: B1
Experiment: self-cleavage, relative activity (ratio to wild type); higher = more cleavage; co-transcriptional
Lab note: anything with self-cleavage at or over 0.4 counts as yes (1); the rest go in no (0).

>  <mutation-code>
C19U U46G

>  <group-label>
no (0)

$$$$
>  <mutation-code>
A42U U69C

>  <group-label>
yes (1)

$$$$
>  <mutation-code>
G17A C85A

>  <group-label>
yes (1)

$$$$
>  <mutation-code>
A45G G67A

>  <group-label>
yes (1)

$$$$
>  <mutation-code>
C62G A70U

>  <group-label>
yes (1)

$$$$
>  <mutation-code>
C49U U79A

>  <group-label>
yes (1)

$$$$
>  <mutation-code>
G5U C58U

>  <group-label>
no (0)

$$$$
>  <mutation-code>
C26G A83G

>  <group-label>
yes (1)

$$$$
>  <mutation-code>
G53C A71U

>  <group-label>
yes (1)

$$$$
>  <mutation-code>
C30U A43U

>  <group-label>
no (0)

$$$$
>  <mutation-code>
C63U G68A

>  <group-label>
yes (1)

$$$$
>  <mutation-code>
G17A G28U

>  <group-label>
no (0)

$$$$
>  <mutation-code>
U46C C62G

>  <group-label>
no (0)

$$$$
>  <mutation-code>
G76C C85U

>  <group-label>
yes (1)

$$$$
>  <mutation-code>
C18A C84U

>  <group-label>
no (0)

$$$$
>  <mutation-code>
G68C A87U

>  <group-label>
yes (1)

$$$$
>  <mutation-code>
C32U A87C

>  <group-label>
yes (1)

$$$$
>  <mutation-code>
U9A U37A

>  <group-label>
no (0)

$$$$
>  <mutation-code>
A16G G81C

>  <group-label>
no (0)

$$$$
>  <mutation-code>
G55C C66G

>  <group-label>
yes (1)

$$$$
>  <mutation-code>
A16C A43G

>  <group-label>
no (0)

$$$$
>  <mutation-code>
U9C A51C

>  <group-label>
yes (1)

$$$$
